# experimentSummary: amyloid nucleation score (Sup35N fusion, yeast selection) (log enrichment); library NNK2; higher = more nucleation; inactive = no reads after selection;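 further: zero at mode of non-aggregating sequences after 7 days selection at 30°C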
Parameter: amyloid nucleation score. Scope: all listed entries.

> print(dat)
          querysequence  endpointresult
1              SVYAGVLM          -0.555
2             YECGCHLFD          -0.225
3  TTRSIMQCDLGTNPFDNTCS           0.203

What does the record list as amyloid nucleation score for `ADLWKLGLRAILELGPL` ? -0.165

And `RPWVHTGW` ? 0.277

And `ICYLKTQGKWFIILPWFVMM` ? 0.241

And `TLNVRIAS` ? -0.124

And `SACDGPGTQSRIVGWGHSCV` ? 1.33
